Sourced from paper PMC4552634

Reported pIC50 values are given for each entry in this list.
- Test system: HepG2 cells
- assay: Cytotoxicity in HepG2 cells (intracellular ATP, ATPlite, 48 h)
- Format: cell-based, human
- study_conditions: HepG2 cells; IC50 per ratio column head; unit inferred
pIC50: −log10 of the molar value.
observation_type: pIC50

> print(dat)
                                    compound  observation.type  qualifier.operator  reported.value
 1  C=CCC1OC(=O)c2cc(OC)cc(OC)c21 (centres unmarked)             pIC50                   >            5.81
 2  COc1cccc(OC)c1CN1CCC(N(C)CCCCCCCCCN2CCC(OC(=O)Nc3ccccc3-c3ccccc3)CC2)CC1             pIC50                   >            5.81
 3  CC(C)(C)c1ccc(-c2nc3c(ccc4nc(N)nc(N)c43)[nH]2)cc1             pIC50                   =            5.41
 4  Cc1ccc(C)c(NC(=O)CC2C(=O)N(c3ccccc3)C(=S)N2Cc2ccco2)c1 (centres unmarked)             pIC50                   <            5.00
 5  COc1ccc2c(OC)c(CNCCCCCCNCc3ccc4cc(OC)ccc4c3OC)ccc2c1             pIC50                   =            5.49
 6  Nc1nc(N)c2c(ccc3c2ccn3Cc2ccc(-c3ccccc3)cc2)n1             pIC50                   =            5.80
 7  CCc1c(CCNCCCCCCNCCc2ccc(Br)cc2)ccc(OC)c1OC             pIC50                   =            5.49
 8  COc1ccc(-c2cnn3ccc(Nc4cc(OC)c(OC)c(OC)c4)nc23)cc1OC             pIC50                   =            4.89
 9  CS(=O)(=O)c1cccc2sc(N3CCN(C(=O)c4ccc([N+](=O)[O-])o4)CC3)nc12             pIC50                   =            4.73
10  CNCCNc1nccc(N2CCc3ncnc(Nc4ccc(OCc5cccc(F)c5)c(Cl)c4)c3C2)n1             pIC50                   =            5.15
11  CC(C)CNCc1cccc(-c2cccc(CN(CCCN3CCN(C)CC3)C(=O)/C=C/c3ccccc3)c2)c1             pIC50                   =            5.13
12  O=C(Nc1ccc2c(c1)CCCN2S(=O)(=O)c1cccs1)c1cc([N+](=O)[O-])ccc1Cl             pIC50                   <            4.60
13  CCCCc1ccc(CCNCCCCCCNCCc2ccc(O)c(O)c2)cc1             pIC50                   =            5.09
14  CC(C)CNCc1cccc(-c2ccc(CN(CCCN3CCN(C)CC3)C(=O)/C=C/c3ccccc3)cc2)c1             pIC50                   =            5.18
15  CC(C)CNCc1ccc(-c2cccc(CN(CCN(C)C)C(=O)CCC3CCCC3)c2)cc1             pIC50                   =            5.26
16  FC(F)(F)COc1ccc(CCNCCCCNCCc2ccc(OCC(F)(F)F)c3ccccc23)c2ccccc12             pIC50                   =            5.52
17  CN1CCN(CC2(Nc3nccc(NCCc4cn(C)c5ccccc45)n3)CCCCC2)CC1             pIC50                   =            5.16
